# System: HCT-15 colon
# Assay Remarks: NCI tumour cell line growth inhibition, 48 h
Assay Metric: GI50

Smiles Record: CCC[CH2][Sn]([CH2]CCC)([O]C(=O)/C=C/c1ccccc1F)[O]C(=O)/C=C/c1ccccc1F
GI50: 740 nM

Smiles Record: O=C(Nc1ccccc1Cl)c1cccc(NC2=C(Cl)C(=O)N(Cc3ccccc3)C2=O)c1
GI50: 14100 nM

Smiles Record: Cc1c2ccncc2c(C)c2c1c1cc(CO)ccc1n2C
GI50: 354 nM

Smiles Record: Cc1ccc(Sc2oc(-c3ccc(C)cc3)nc2[P+](c2ccccc2)(c2ccccc2)c2ccccc2)cc1
GI50: 310 nM

# next compound below
Lab note: "NC(=O)c1cccc(-c2cc(C(N)=O)ccc2Cl)c1" gave GI50 of 846 nM

---

# System: UO-31 renal
# Assay Remarks: NCI tumour cell line growth inhibition, 48 h
The compounds listed here are annotated with their GI50.

A selection of reference data follows.
Smiles Record: CCSc1nc(N)c(C#N)c(-c2ccco2)c1C#N
GI50: 56.1 µM

Smiles Record: Cc1cc(NC(=O)c2cnc(N3CCN(CCOCCOCCOCCOCCC(=O)N[C@H](C(=O)N4C[C@H](O)C[C@H]4C(=O)N[C@@H](C)c4ccc(-c5scnc5C)cc4)C(C)(C)C)CC3)cn2)c2ncccc2c1
GI50: 12.7 µM

Smiles Record: COc1ccc(Oc2ccccc2NC(=O)CNC(=O)c2cccc3ccccc23)cc1
GI50: 1.49 µM

Smiles Record: Nc1n[nH]c(N)c1N=Nc1ccc(O)cc1
GI50: 13.7 µM

Item: "N.N.N.N.N.O=S(=O)([O-])C(F)(F)F.O=S(=O)([O-])C(F)(F)F.[Os+8]" | GI50: 12.8 µM

---

# Test system: MALME-3M melanoma
# Assay Remarks: NCI tumour cell line growth inhibition, 48 h
Listing: TGI of selected compounds

Compound: N/C(=N\c1nc2ccccc2s1)NC(=NC1CCCCC1)NC1CCCCC1
TGI: 3.13 µM

Proceed to the following item.
Item "Cc1nc2c(sc(=S)n2-c2ccccc2)c2nc3ccccc3n12" ; assay system MALME-3M melanoma; TGI reported as > 100 µM

---

# System: U251 CNS
# Assay Remarks: NCI tumour cell line growth inhibition, 48 h; in the data active = GI50 below about 0.43 µM; inactive = the rest
Select the matching outcome among active, inactive

Solved cases below.
Compound: CCN1C(=O)N(CC)C2C1NN=c1s/c(=C\c3ccc[nH]3)c(=O)n12 (stereo not given)
Assigned Class: inactive

Compound: COc1ccc2c(c1)C(=O)c1c-2n(CCCN)c(=O)c2cc([N+](=O)[O-])ccc12
Assigned Class: active

Compound: COc1cccc(C2C(C#N)=C(N)Oc3c2ccc2ccccc32)c1 (stereo not given)
Assigned Class: active

stdin: # outcome recorded in this test, key = "O=c1c(-c2ccccc2)coc2cc(OC/C(=N/O)c3ccc(F)cc3)ccc12"
stdout: inactive

stdin: Can you look up the reported call for "Nc1cc2cccc[n+]2c2cccc(Cl)c12" for me?
stdout: inactive

stdin: Which result was noted for this compound in the test: "COc1cc(OC)cc(-c2n/c(=C\c3c(O)[nH]c4ccc(Cl)cc34)cc3c2=Nc2ccccc2-3)c1"
stdout: inactive

---

# Tested on: SNB-19 CNS
# Assay Remarks: NCI tumour cell line growth inhibition, 48 h
Assay Metric: TGI

These recorded examples may help you get a feel for the data.
Compound: N#CC12C(=O)N3C(=NC(c4ccccc4)NC3c3ccccc3)C1(C#N)C(c1ccccc1)NC1=C2CCCC1 (stereo not given)
TGI: > 100 µM

Compound: NNc1c2ccccc2nc2ccccc12
TGI: > 100 µM

Lab book: TGI of Nc1ccc(C(=O)NN2C(=O)C(Cl)C2c2cccc(O)c2)cc1 (stereo not given) noted as 30.5 µM

Kindly note the recorded TGI for "C=CCC1(CC)C(=O)NC(=O)NC1=O" , which is > 100 µM

// TGI value for "S=C(N/N=C\c1ccccn1)N(Cc1ccccn1)Cc1ccccn1" : 21.9 µM

---

# System: RXF 393 renal
# Assay Remarks: NCI tumour cell line growth inhibition, 48 h
Listing of recorded TGI by entry.
Output spec: scalar in µM, unitless text.

Smiles Record: Cc1cccc2c(Nc3ccc(NS(C)(=O)=O)cc3)c3ccc([N+](=O)[O-])cc3nc12
Display Unit: µM
TGI: 3.1

The reported TGI of the molecule "Cc1c2ccncc2c(C)c2c1c1cc(CO)ccc1n2C" was 1.7

TGI reading for "COC1=CC(=O)c2c(O)c3c(c(O)c2C1=O)C[C@](C)(O)C[C@@H]3O" : 17.3

Record "NC(=O)c1cccc(-c2cc(C(N)=O)ccc2Cl)c1" , field TGI: 5.26

TGI reported for this molecule "CC(=O)O.CC(=O)O.CC(=O)O.CC(=O)O.[Rh].[Rh]" : 78.3

Consider "COc1ccc(Cc2nc3ccccc3s2)cc1OC" . Its measured TGI is 34.7

---

# Tested on: CAKI-1 renal
# Assay Remarks: NCI tumour cell line growth inhibition, 48 h; in the data active means GI50 below about 0.43 µM; inactive means the rest
Permitted responses: Yes for active, No for inactive

Example entries begin here.
Compound: N/C(=N\c1nc2ccccc2s1)NC(=NC1CCCCC1)NC1CCCCC1
Assigned Class: No
--
Compound: CCOC(=O)C1=C(C)N2C(=NC3=C(CCC/C3=C\c3ccc(Cl)cc3)C2c2ccc(Cl)cc2)S1 (stereo not given)
Assigned Class: No
--
Compound: O=c1c(O)cccn1CCCN(CCCn1cccc(O)c1=O)CCn1cccc(O)c1=O
Assigned Class: No
--
Compound: O=c1c(-c2ccccc2)coc2cc(OC/C(=N/O)c3ccc(F)cc3)ccc12
Assigned Class: Yes

--- query ---
stdin: Please state the recorded outcome for this compound: "CC(=O)O.CC(=O)O.CC(=O)O.CC(=O)O.[Rh].[Rh]"
stdout: No

---

# Test system: SF-539 CNS
# Assay Remarks: NCI tumour cell line growth inhibition, 48 h
Assay Metric: TGI

Below, 6 compounds whose answers are already recorded.
Compound: CCC[CH2][Sn]([CH2]CCC)([O]C(=O)/C=C/c1ccccc1F)[O]C(=O)/C=C/c1ccccc1F
TGI: 2.56 µM
--
Compound: COc1cccc(C2C(C#N)=C(N)Oc3c2ccc2ccccc32)c1 (stereo unspecified)
TGI: 0.0695 µM
--
Compound: O=c1[nH]c2cc3cccnc3c(Cl)c2nc1CBr
TGI: 26.4 µM
--
Compound: COc1cc(/C=N\NC(=O)C[N+](C)(C)C)cc(OC)c1OC
TGI: > 10 µM
--
Compound: NS(=O)(=O)c1cccc(-c2ccc3c(NC(=O)C4CC4)n[nH]c3c2)c1
TGI: > 25 µM
--
Compound: NC(=O)C12CC3CC(CC(Br)(C3)C1)C2
TGI: > 100 µM

Record for "Nc1ccc(C(=O)N/C(=C\c2cccc([N+](=O)[O-])c2)c2nc3ccc(Cl)cc3[nH]2)cc1" under target or system SF-539 CNS: TGI reported as > 100 µM

Entry Cn1c2c(c3ccccc31)CCN1C(=O)C3SC21C1C(=O)N(c2ccccc2)C(=O)C31 (stereo unspecified) , SF-539 CNS data, TGI value: > 100 µM

For "COc1nc(OC)nc(-c2cccc(F)c2)n1" on SF-539 CNS, measured TGI was 32.5 µM

Given the compound COc1cc(C(c2cccc3ccccc23)N2C(=O)CCC2C(=O)NCc2ccccc2)cc(OC)c1OC (stereo unspecified) and test system SF-539 CNS, the measured TGI is > 100 µM

Sample "COP(=O)(OC)C(NC=O)P(=O)(OC)OC" , system: SF-539 CNS. Its TGI is > 100 µM

---

TGI by entry:
# Test system: HCT-116 colon
# Assay Remarks: NCI tumour cell line growth inhibition, 48 h
Field: numeric (µM). Do not append units.

Smiles Record: NNc1c2ccccc2nc2ccccc12
Display Unit: µM
TGI: 17.6
--
Smiles Record: CCCCc1ccc(-n2sc3ncccc3c2=O)cc1
Display Unit: µM
TGI: 26.3
--
Smiles Record: O=c1[nH]c2cc3cccnc3c(Cl)c2nc1CBr
Display Unit: µM
TGI: 25.8
--
Smiles Record: N=C(N)SCCCN
Display Unit: µM
TGI: 30.7

Lab note: next molecule to report on.
// sample "COc1ccc2c(-c3ccc(OCCN(C)C)cc3)c(Oc3ccc(Cl)cc3)c(=O)oc2c1" , its TGI was 8.49

---

# Tested on: RXF 393 renal
# Assay Remarks: NCI tumour cell line growth inhibition, 48 h
Assay Metric: TGI

Molecule: Cc1ccnc(NC(=S)Nc2cccc(Cl)c2)c1
TGI: > 100 µM
--
Molecule: COC(=O)C1=C(C)N(NC(=O)c2ccccc2)C2(O)CCCC(=O)C12C (stereo not given)
TGI: > 100 µM
--
Molecule: CC1(C)CC2=C(Sc3ccccc3N2)C(=O)C1C(=O)C(=O)Nc1cc(Cl)ccc1Cl (stereo not given)
TGI: > 100 µM

Value of measured TGI for the entry "COCCOCOC(C)(C)[C@H](CCOC(C)=O)O[Si](c1ccccc1)(c1ccccc1)C(C)(C)C" : 45.7 µM

TGI for O/N=C1/C2CC3CC1(c1ccccc1)CC(/C3=N/O)/C2=N\O (stereo not given) is > 100 µM
